Ref: ChEMBL document CHEMBL1145059

Subject of test: Choline kinase alpha (Homo sapiens, UniProt P35790)
Sequence (P35790 whole entry): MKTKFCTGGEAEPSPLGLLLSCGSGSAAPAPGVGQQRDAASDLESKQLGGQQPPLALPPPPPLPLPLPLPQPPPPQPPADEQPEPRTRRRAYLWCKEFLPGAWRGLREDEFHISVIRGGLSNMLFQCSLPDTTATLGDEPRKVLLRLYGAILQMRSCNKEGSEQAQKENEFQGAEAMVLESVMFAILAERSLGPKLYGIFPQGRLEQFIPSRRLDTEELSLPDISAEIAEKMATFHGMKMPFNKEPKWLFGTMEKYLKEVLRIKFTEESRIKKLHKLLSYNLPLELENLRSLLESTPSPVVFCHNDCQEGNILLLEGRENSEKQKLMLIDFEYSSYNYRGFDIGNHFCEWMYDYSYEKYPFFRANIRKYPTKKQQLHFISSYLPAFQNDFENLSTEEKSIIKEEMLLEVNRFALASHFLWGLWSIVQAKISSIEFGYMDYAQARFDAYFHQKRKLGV
Run description: Ex vivo inhibitory activity against human choline kinase was determined
Exercise: for every item that follows, state its recorded IC50.
Quick note: give the figure in µM, leave out the unit.

Exercise: For the compound c1cc2cc(c1)CNc1cc[n+](cc1)Cc1ccc(cc1)C[n+]1ccc(cc1)NC2 , report IC50.
Key: 0.3

Exercise: For the compound c1cc2cc(c1)CNc1cc[n+](cc1)Cc1cccc(c1)C[n+]1ccc(cc1)NC2 , report IC50.
Key: 13.2

Exercise: For the compound c1cc2ccc1CNc1cc[n+](cc1)Cc1ccc(cc1)C[n+]1ccc(cc1)NC2 , report IC50.
Key: 2.1

Exercise: For the compound c1cc2cc(c1)C[n+]1ccc(cc1)NCc1ccc(cc1)CNc1cc[n+](cc1)C2 , report IC50.
Key: 24.8
